Entries and their pIC50 values follow.
- Test system: A549
- assay_notes: Cytotoxicity against human A549 cells after 96 hrs by SRB assay
- Format: functional, cell-based
- condition_description: Homo sapiens, A549, 96 h; read-out: IC50
Scale explanation: pIC50 corresponds to minus log10 of a concentration expressed in moles per litre.

C=C1C[C@]2(C)[C@H]3CC[C@@H]4[C@H]5[C@H](C(=C)C)CC[C@]5(C(=O)N5CCSCC5)CC[C@@]4(C)[C@]3(C)CC[C@H]2C(C)(C)C1=O 5.82

Asked: Record request: pIC50 value, item "C=C1C[C@]2(C)[C@H]3CC[C@@H]4[C@H]5[C@H](C(=C)C)CC[C@]5(C(=O)OC)CC[C@@]4(C)[C@]3(C)CC[C@H]2C(C)(C)C1=O"
Given back: 5.29

Asked: Record: "C=C1C[C@]2(C)[C@H]3CC[C@@H]4[C@H]5[C@H](C(=C)C)CC[C@]5(C(=O)O)CC[C@@]4(C)[C@]3(C)CC[C@H]2C(C)(C)C1=O"
Given back: 6.22

Asked: Record: "C=C1C[C@]2(C)[C@H]3CC[C@@H]4[C@H]5[C@H](C(=C)C)CC[C@]5(C=O)CC[C@@]4(C)[C@]3(C)CC[C@H]2C(C)(C)C1=O"
Given back: 5.74

Asked: Record: "C=C(C)[C@@H]1CC[C@]2(C(=O)OC)CC[C@]3(C)[C@H](CC[C@@H]4[C@@]5(C)C[C@@H](CSCCO)C(=O)C(C)(C)[C@@H]5CC[C@]43C)[C@@H]12"
Given back: 5.68
